# credit: the supplement of paper PMC12042874

assay: amyloid nucleation score (Sup35N fusion, yeast selection) (log enrichment); library NNK1; higher = more nucleation; inactive = no reads after selection;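 further: zero at mode of non-aggregating sequences after 7 days selection at 30°C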
measured-property: amyloid nucleation score
# answer = number (no unit)

In the examples that follow, each entry is paired with its recorded amyloid nucleation score.
| substance | amyloid nucleation score |
| --- | --- |
| MRLCPEPASKSDMPFSRDLR | 0.268 |
| LYSVISPLSEDTYDCLSVPY | 0.297 |
| SKSGGHASSNG | 0.649 |
| DWGRLVYRFNCKDRNRDGAR | 0.177 |
| FQAQWNLSTCPNAFCLFLIR | 5.82 |

Provide amyloid nucleation score value for the following substance: YREEEILRVVNLTIFAGPGM -0.55

Provide amyloid nucleation score value for the following substance: KSVFIYLGMISLVG 0.352

Provide amyloid nucleation score value for the following substance: GFKGILTYGRGVLVHFYRPQ 0.09

* * *

experiment: amyloid nucleation score (Sup35N fusion, yeast selection) (log enrichment); library NNK2; higher = more nucleation; inactive = no reads after selection
measured-property: amyloid nucleation score
# answer = number (no unit)

| sequence-input | amyloid nucleation score |
| --- | --- |
| FLITCQLESTLYQW | -0.334 |

Provide amyloid nucleation score value for the following sequence: ILSDKCLIGIGCSISSDTAG -0.352

Provide amyloid nucleation score value for the following sequence: AFYWVWDLDSGICNVSIFRL -0.995

Provide amyloid nucleation score value for the following sequence: CCISMDVLWRLSEQP 6.38

Provide amyloid nucleation score value for the following sequence: KRSLIINGAATT 1.61

* * *

experiment: amyloid nucleation score (Sup35N fusion, yeast selection) (log enrichment); library NNK1; higher = more nucleation; inactive = no reads after selection
In this section, each of the substances is paired with its reported amyloid nucleation score.
# answer = number (no unit)

In the examples that follow, each entry is paired with its recorded amyloid nucleation score.
| substance | amyloid nucleation score |
| --- | --- |
| SLWNSYLETRV | 1.14 |
| SYSFWPMQLTCYFFDVGRCL | 7.43 |
| GFMVDERSTIVEDLPRSADV | -0.913 |
| FMDMDRLMSRGLQVNKGVML | -0.228 |
| FRRHYNKMNFFVGFRERMCG | -0.262 |
| HHLTRTTPYPTSTWLAQLLS | 0.994 |

Provide amyloid nucleation score value for the following substance: FGLYFRKISGLSPN -0.211

Provide amyloid nucleation score value for the following substance: ILGMFSTICDGWADVMH 0.525

Provide amyloid nucleation score value for the following substance: EMIMVGSMYSRGNSTCFPRA 0.777

Provide amyloid nucleation score value for the following substance: SDEMVW 2.65

Provide amyloid nucleation score value for the following substance: NYRISAYCDSHVRRLPEYMF 0.175

Provide amyloid nucleation score value for the following substance: GTRCMALALGLHIYIFIRGG -0.161

* * *

assay: amyloid nucleation score (Sup35N fusion, yeast selection) (log enrichment); library NNK2; higher = more nucleation; inactive = no reads after selection
measured-property: amyloid nucleation score
# answer = number (no unit)

| substance | amyloid nucleation score |
| --- | --- |
| YWLYMVAHAPKSFIE | 0.509 |
| QYGHCAPDFGSTLLGISST | -0.601 |
| LNIQFGGSLHWKSGGVATEA | 0.103 |
| MDWVQGAFMPRGSGHWHN | -0.327 |

Provide amyloid nucleation score value for the following substance: HTFYVNKLPLPKL 0.875

Provide amyloid nucleation score value for the following substance: SVNWEDKDLGVGSNLEIASL -0.889

Provide amyloid nucleation score value for the following substance: EPCNTNIK -0.553

Provide amyloid nucleation score value for the following substance: DGVRGLYKRLRMCTTCLCTL 6.48

Provide amyloid nucleation score value for the following substance: WTDAKALGGLSLLIRWSLEE 4.13

Provide amyloid nucleation score value for the following substance: MQLCYKYRTVVTSSLDPEYM -0.066

Provide amyloid nucleation score value for the following substance: YPNTLFHWEAS 0.359

Provide amyloid nucleation score value for the following substance: GKHIGSLSEWTMVHHDGARR 1.21

Provide amyloid nucleation score value for the following substance: AYDRIY 0.367

Provide amyloid nucleation score value for the following substance: IAMIVIQYTIRHCGSAEAVG 2.34

Provide amyloid nucleation score value for the following substance: ISVGRSYSV 0.694

Provide amyloid nucleation score value for the following substance: LGIIQTVCRHGLQFMCVSRG -0.122

Provide amyloid nucleation score value for the following substance: CNIRAYDIISTLMHFVLCH -1.67

* * *

In this section, each of the substances is paired with its reported amyloid nucleation score.
assay: amyloid nucleation score (Sup35N fusion, yeast selection) (log enrichment); library NNK1; higher = more nucleation; inactive = no reads after selection
# answer = number (no unit)

Provide amyloid nucleation score value for the following substance: VRFLISHRESVLKSMAGCVV 0.815

Provide amyloid nucleation score value for the following substance: WLSRSSFMKLCSTKFPRWRL -0.494

* * *

assay: amyloid nucleation score (Sup35N fusion, yeast selection) (log enrichment); library NNK1; higher = more nucleation; inactive = no reads after selection
measured-property: amyloid nucleation score
# answer = number (no unit)

In the examples that follow, each entry is paired with its recorded amyloid nucleation score.
| substance | val |
| --- | --- |
| IFGGLH | 0.631 |
| YFRVLGN | -0.011 |
| FRIRRGKRSVHTVNFAFAEV | 0.583 |
| VASFRMG | 1.37 |
| YIQLVI | -0.279 |

Provide amyloid nucleation score value for the following substance: HLRIGLNDVSLIISLTDKRT -1.07

Provide amyloid nucleation score value for the following substance: IVVFFAPDFCGRQLYDKSKS 4.85

Provide amyloid nucleation score value for the following substance: HGMWNTQVTVTWYTSADLFV -0.093

Provide amyloid nucleation score value for the following substance: FVSNYYYV 1.95

Provide amyloid nucleation score value for the following substance: RVVVCRWVDRYGIAASGAIT 0.643

* * *

assay: amyloid nucleation score (Sup35N fusion, yeast selection) (log enrichment); library NNK2; higher = more nucleation; inactive = no reads after selection
Class T: amyloid nucleation score at least 0.5. Class F: amyloid nucleation score below 0.5.

Worked examples follow.
| sequence-input | label-value |
| --- | --- |
| WTMRDLCG | T |
| LTYYLSYCHYRRTYLAGLLQ | F |
| RLTYNKYLTWNCYVFLSHAL | F |
| AVIMALNIGWRRRDSGWDGV | T |

In plain terms: is recorded amyloid nucleation score at least 0.5 for FVNLRVILH ? T

In plain terms: is recorded amyloid nucleation score at least 0.5 for ILIMGMILNSMYV ? T

In plain terms: is recorded amyloid nucleation score at least 0.5 for ACRAICVPKGVGYWFCVTSE ? T

In plain terms: is recorded amyloid nucleation score at least 0.5 for VSNLTQVAEVRQSNGGVFCG ? F

In plain terms: is recorded amyloid nucleation score at least 0.5 for RHYLLFGWIVSPKVELFSPS ? T

In plain terms: is recorded amyloid nucleation score at least 0.5 for DSISFNPYRMLRDNYLLHVC ? T

In plain terms: is recorded amyloid nucleation score at least 0.5 for HLLPWMRVLYTYVCSNIQMF ? F

In plain terms: is recorded amyloid nucleation score at least 0.5 for KNIPFRMYWS ? T

In plain terms: is recorded amyloid nucleation score at least 0.5 for WAYPRNVQ ? F

* * *

assay: amyloid nucleation score (Sup35N fusion, yeast selection) (log enrichment); library NNK3; higher = more nucleation; inactive = no reads after selection
measured-property: amyloid nucleation score

| sequence-input | amyloid nucleation score |
| --- | --- |
| SVSFVDSRLLYVKICLSALG | inactive |
| CLYRGGFSFYDFSGFCVLSS | inactive |
| LSLSSFCF | 1.3 |
| TIPFRAINPVSM | inactive |
| VCYYRQACTITNLLVMVFVC | inactive |

Provide amyloid nucleation score value for the following sequence: DNSSLSMK inactive

Provide amyloid nucleation score value for the following sequence: LRTGCSYNSREGHNTLGRSS inactive

Provide amyloid nucleation score value for the following sequence: LYTNGIFYWQMGYLKVWQGI inactive

* * *

experiment: amyloid nucleation score (Sup35N fusion, yeast selection) (log enrichment); library NNK2; higher = more nucleation; inactive = no reads after selection
measured-property: amyloid nucleation score

In the examples that follow, each entry is paired with its recorded amyloid nucleation score.
| substance | measured-property | val |
| --- | --- | --- |
| DLAFFMLHYLHIRRCKDYPR | amyloid nucleation score | inactive |
| CNRAQLNVSPNLDDMRKFGV | amyloid nucleation score | -0.506 |
| SNTHISYYWGTNVWLHVDIN | amyloid nucleation score | 6.19 |
| RGHSALFTNFCGTMCGVVDG | amyloid nucleation score | 0.148 |

Provide amyloid nucleation score value for the following substance: FVSYED -0.793

Provide amyloid nucleation score value for the following substance: KMRDGFISLVKCEYVGGFGC -0.856

Provide amyloid nucleation score value for the following substance: GGCCSLPLACNKKGCCYWVA 1.84

Provide amyloid nucleation score value for the following substance: CFNSTDN inactive

Provide amyloid nucleation score value for the following substance: INVFSYSL 2.58
